# protocol-details: Study of oral pharmacokinetics in rats
# experimental-context: rat, in vivo, male SD rats, p.o., 5 mg/kg
property-label: Cmax (ng/mL)

I: CN1C(=O)C(NC(=O)c2nnc(Cc3ccccc3)[nH]2)Cc2cn(-c3ncccc3C(F)(F)F)c3cccc1c23 (racemic)
II: CN1C(=O)[C@@H](NC(=O)c2nnc(Cc3ccccc3)[nH]2)Cc2cn(-c3ncccc3C(F)(F)F)c3cccc1c23
III: CN1C(=O)[C@@H](NC(=O)c2nnc(Cc3ccccc3)[nH]2)Cc2cn(-c3ncccc3OC(F)F)c3cccc1c23
In a descending ranking, list each entry from above by its Cmax, from the largest value down to the smallest. // list labels; follow requested order
I, II, III
(I: 2230 ng/mL, II: 1270 ng/mL, III: 494 ng/mL)

###

# protocol-details: Study of oral pharmacokinetics in rats
# experimental-context: rat, in vivo, male SD rats, p.o., 5 mg/kg
property-label: half-life (h)

* CN1C(=O)C(NC(=O)c2nnc(Cc3ccccc3)[nH]2)Cc2cn(-c3ncccc3C(F)(F)F)c3cccc1c23 (racemic) [T-40] | 3.26

P: CN1C(=O)[C@@H](NC(=O)c2nnc(Cc3ccccc3)[nH]2)Cc2cn(-c3ncccc3C(F)(F)F)c3cccc1c23 [T-96]
Q: CN1C(=O)[C@@H](NC(=O)c2nnc(Cc3ccccc3)[nH]2)Cc2cn(-c3ncccc3OC(F)F)c3cccc1c23 [T-112]
Which has the smaller recorded half-life, P or Q ? Reply briefly: the label of your chosen item.
Q

###

# protocol-details: Study of oral pharmacokinetics in rats
# experimental-context: rat, in vivo, male SD rats, p.o., 5 mg/kg
property-label: Tmax (h)

- CN1C(=O)[C@@H](NC(=O)c2nnc(Cc3ccccc3)[nH]2)Cc2cn(-c3ncccc3OC(F)F)c3cccc1c23 [T-112]: 0.75
- CN1C(=O)[C@@H](NC(=O)c2nnc(Cc3ccccc3)[nH]2)Cc2cn(-c3ncccc3C(F)(F)F)c3cccc1c23 [T-96]: 1
- CN1C(=O)C(NC(=O)c2nnc(Cc3ccccc3)[nH]2)Cc2cn(-c3ncccc3C(F)(F)F)c3cccc1c23 (racemic) [T-40]: 1

###

Target chain: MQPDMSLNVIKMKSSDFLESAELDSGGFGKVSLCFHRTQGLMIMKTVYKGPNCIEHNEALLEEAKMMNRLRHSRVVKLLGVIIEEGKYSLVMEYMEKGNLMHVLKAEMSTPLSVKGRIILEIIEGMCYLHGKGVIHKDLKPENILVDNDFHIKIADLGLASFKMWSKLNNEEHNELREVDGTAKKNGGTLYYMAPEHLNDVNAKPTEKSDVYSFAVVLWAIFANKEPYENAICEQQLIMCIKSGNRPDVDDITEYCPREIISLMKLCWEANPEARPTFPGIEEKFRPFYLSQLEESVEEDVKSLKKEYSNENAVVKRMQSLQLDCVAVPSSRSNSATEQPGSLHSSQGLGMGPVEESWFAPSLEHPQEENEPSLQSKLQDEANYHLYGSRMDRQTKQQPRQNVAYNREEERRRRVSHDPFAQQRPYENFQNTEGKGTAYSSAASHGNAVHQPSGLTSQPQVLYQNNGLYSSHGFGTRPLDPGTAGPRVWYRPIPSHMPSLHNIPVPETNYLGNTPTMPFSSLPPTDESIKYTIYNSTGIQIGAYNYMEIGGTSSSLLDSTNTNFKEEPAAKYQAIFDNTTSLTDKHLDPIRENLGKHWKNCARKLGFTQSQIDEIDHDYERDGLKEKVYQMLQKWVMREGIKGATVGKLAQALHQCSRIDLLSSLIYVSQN
property-label: pIC50
Just the number, please; pIC50 means minus log10 of the concentration in mol/L.

Entry under test: CN1C(=O)[C@@H](NC(=O)c2nnc(Cc3ccccc3)[nH]2)Cc2cn(-c3ncccc3C(F)(F)F)c3cccc1c23 . Its pIC50 was 7.82
